target: CDK4 (Homo sapiens); construct: endogenous in cells; test: CDK4 degradation (DC50, Dmax); format: cell-based
Sequence (P11802 whole entry): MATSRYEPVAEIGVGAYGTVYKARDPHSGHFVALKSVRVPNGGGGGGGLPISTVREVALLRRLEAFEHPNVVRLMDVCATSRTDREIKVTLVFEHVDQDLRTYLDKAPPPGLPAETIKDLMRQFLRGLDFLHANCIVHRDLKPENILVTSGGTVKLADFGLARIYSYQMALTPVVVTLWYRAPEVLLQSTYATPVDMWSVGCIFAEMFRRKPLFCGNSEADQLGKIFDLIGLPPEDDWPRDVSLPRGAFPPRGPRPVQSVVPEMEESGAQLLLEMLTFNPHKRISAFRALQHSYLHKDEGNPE
observation type: Dmax

Reference set (5 entries):
CC(=O)c1c(C)c2cnc(Nc3ccc(N4CCN(CCCNc5cc6c(cc5F)C(=O)N(C5CCC(=O)NC5=O)C6)CC4)cn3)nc2n(C2CCCC2)c1=O (centres unmarked) [Compound 52]	> 80%
CC(=O)c1c(C)c2cnc(Nc3ccc(N4CCN(C(=O)C5CN(c6ccc7c(c6)CN(C6CCC(=O)NC6=O)C7=O)C5)CC4)cn3)nc2n(C2CCCC2)c1=O (centres unmarked) [Compound 122]	> 80%
CC(=O)c1c(C)c2cnc(Nc3ccc(N4CCN(C5CCN(c6ccc(N7CCC(=O)NC7=O)cc6)CC5)CC4)cn3)nc2n(C2CCCC2)c1=O [Compound 113]	> 80%
CC(=O)c1c(C)c2cnc(Nc3ccc(N4CCN(CCCNc5ccc(N6CCC(=O)NC6=O)cc5)CC4)cn3)nc2n(C2CCCC2)c1=O [Compound 105]	> 80%
Cc1nc2c(F)cc(-c3nc(Nc4ccc(CN5CCN(CC6CN(c7ccc(NC8CCC(=O)NC8=O)cc7)C6)CC5)cn4)ncc3F)cc2n1C(C)C (centres unmarked) [Compound 134]	> 80%

Briefly, Dmax measured for CC(=O)c1c(C)c2cnc(Nc3ccc(N4CCN(CC5CCN(C(=O)N6CCN(c7ccc8c(c7)CN(C7CCC(=O)NC7=O)C8=O)CC6)CC5)CC4)cn3)nc2n(C2CCCC2)c1=O (centres unmarked) [Compound 32] : > 60%

Briefly, Dmax measured for Cc1nc2c(F)cc(-c3nc(Nc4ccc(CN5CCN(C6CN(c7cccc8c7C(=O)N(C7CCC(=O)NC7=O)C8=O)C6)CC5)cn4)ncc3F)cc2n1C(C)C (centres unmarked) [Compound 98] : > 80%

Briefly, Dmax measured for CC(=O)c1c(C)c2cnc(Nc3ccc(N4CCN(C5CCN(c6cccc7c6C(=O)N(C6CCC(=O)NC6=O)C7=O)CC5)CC4)cn3)nc2n(C2CCCC2)c1=O (centres unmarked) [Compound 77] : > 60%

Briefly, Dmax measured for CC(=O)c1c(C)c2cnc(Nc3ccc(N4CCN(C(=O)N5CCN(CC6CCN(c7ccc8c(c7)C(=O)N(C7CCC(=O)NC7=O)C8=O)CC6)CC5)CC4)cn3)nc2n(C2CCCC2)c1=O (centres unmarked) [Compound 15] : > 50%

Briefly, Dmax measured for CC(=O)c1c(C)c2cnc(Nc3ccc(N4CCN(C5CCN(C(=O)N6CCN(c7ccc8c(c7)CN(C7CCC(=O)NC7=O)C8=O)CC6)CC5)CC4)cn3)nc2n(C2CCCC2)c1=O (centres unmarked) [Compound 36] : > 60%

Briefly, Dmax measured for CC(=O)c1c(C)c2cnc(Nc3ccc(N4CCN(CC5CCN(C(=O)N6CCC(C7CCN(c8ccc9c(c8)C(=O)N(C8CCC(=O)NC8=O)C9=O)CC7)CC6)CC5)CC4)cn3)nc2n(C2CCCC2)c1=O (centres unmarked) [Compound 82] : > 50%

====

target: CDK6 (Homo sapiens, UniProt Q00534); construct: endogenous in cells; assay: CDK6 degradation (DC50, Dmax); type: cell-based
Sequence (Q00534 whole entry): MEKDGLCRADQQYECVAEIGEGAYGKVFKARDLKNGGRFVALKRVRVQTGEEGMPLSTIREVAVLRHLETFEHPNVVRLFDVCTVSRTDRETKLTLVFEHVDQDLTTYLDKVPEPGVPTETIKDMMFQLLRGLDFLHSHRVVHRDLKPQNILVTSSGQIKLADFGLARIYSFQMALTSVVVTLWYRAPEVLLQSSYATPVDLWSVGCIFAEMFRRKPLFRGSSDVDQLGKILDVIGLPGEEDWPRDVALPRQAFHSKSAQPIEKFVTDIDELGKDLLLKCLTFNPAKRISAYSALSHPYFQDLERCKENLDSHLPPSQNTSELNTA
Readings of Dmax for the listed compounds

CC(=O)c1c(C)c2cnc(Nc3ccc(N4CCN(C(=O)N5CCC(CN6CCC(c7ccc8c(c7)C(=O)N(C7CCC(=O)NC7=O)C8=O)CC6)CC5)CC4)cn3)nc2n(C2CCCC2)c1=O (stereo not drawn) [Compound 17]	> 50%
CC(=O)c1c(C)c2cnc(Nc3ccc(N4CCN(C(=O)N5CCC(C6CCN(c7ccc8c(c7)C(=O)N(C7CCC(=O)NC7=O)C8=O)CC6)CC5)CC4)cn3)nc2n(C2CCCC2)c1=O (stereo not drawn) [Compound 9]	> 50%
CC(=O)c1c(C)c2cnc(Nc3ccc(N4CCN(C(=O)N5CCC(CCN6CCC(c7ccc8c(c7)C(=O)N(C7CCC(=O)NC7=O)C8=O)CC6)CC5)CC4)cn3)nc2n(C2CCCC2)c1=O (stereo not drawn) [Compound 29]	> 50%

Briefly, Dmax measured for Cc1nc2c(F)cc(-c3nc(Nc4ccc(CN5CCN(c6cccc7c6C(=O)N(C6CCC(=O)NC6=O)C7=O)CC5)cn4)ncc3F)cc2n1C(C)C (stereo not drawn) [Compound 101] : > 80%
